Origin of values: patent US20260116991A1

biological target: T1, human GPC3-His protein (human, UniProt P51654 25-559); test: SPR, antibody captured on Protein A chip, human GPC3-His analyte;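 note: measured at 25 °C flow cell, human GPC3-His injected at five concentrations up to 200 nM, 240 s association, up to 600 s dissociation, double-referenced, fitted to Langmuir 1:1 model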
T1 construct: also called human GPC3 protein; not shown: His tag
Threshold check on Kd: strictly below 2 nM is true (1); on or above 2 nM is false (0).

Look over these answered cases.
binder="F3.81.19 (antibody, human IgG1, kappa, V domains shown, Human-murine chimeric antibody) VH: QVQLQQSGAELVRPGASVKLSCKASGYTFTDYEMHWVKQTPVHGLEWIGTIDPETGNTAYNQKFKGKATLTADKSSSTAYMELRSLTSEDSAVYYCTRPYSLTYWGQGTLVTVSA VL: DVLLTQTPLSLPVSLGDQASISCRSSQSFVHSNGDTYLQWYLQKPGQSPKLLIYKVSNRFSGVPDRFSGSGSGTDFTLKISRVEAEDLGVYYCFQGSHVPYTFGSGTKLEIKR" group_label="true (1)"
binder="F1.120.16 (antibody, human IgG1, kappa, V domains shown, Human-murine chimeric antibody) VH: EFQLQQSGPELVKPGASVKISCKASGYSFTDYNMNWVKQSNGKSLEWIGLIHPKFSVTSYNRKFKGKATLTVDQSSSTAYMQLNSLTSEDSAVYYCARWAGDYFDYWGQGTTLTVSS VL: DIVLTQSPATLSVTPGDSVSLSCRASQSISNNLHWYQQKSHESPRLLIKYASQSISGIPSRFSGSGSGTDFTLTINSVETEDFGMYFCQQSNSWPQTFGGGTKLEIKR" group_label="false (0)"
binder="F1.3.9 (antibody, human IgG1, kappa, V domains shown, Human-murine chimeric antibody) VH: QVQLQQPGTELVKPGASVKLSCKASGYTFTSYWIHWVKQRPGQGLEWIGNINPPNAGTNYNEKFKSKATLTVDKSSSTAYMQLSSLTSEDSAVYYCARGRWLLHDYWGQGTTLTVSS VL: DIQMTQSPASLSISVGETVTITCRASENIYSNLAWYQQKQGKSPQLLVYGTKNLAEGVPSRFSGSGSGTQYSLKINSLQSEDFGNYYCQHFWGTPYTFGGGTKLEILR" group_label="false (0)"
binder="F1.9.19 (antibody, human IgG1, kappa, V domains shown, Human-murine chimeric antibody) VH: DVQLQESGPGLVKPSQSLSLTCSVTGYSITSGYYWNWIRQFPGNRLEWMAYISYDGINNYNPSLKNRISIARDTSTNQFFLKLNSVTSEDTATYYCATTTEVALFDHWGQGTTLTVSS VL: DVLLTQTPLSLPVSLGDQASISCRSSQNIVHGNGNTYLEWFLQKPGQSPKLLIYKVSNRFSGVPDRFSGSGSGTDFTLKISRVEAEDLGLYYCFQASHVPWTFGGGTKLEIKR" group_label="false (0)"
binder="F1.153.1 (antibody, human IgG1, kappa, V domains shown, Human-murine chimeric antibody) VH: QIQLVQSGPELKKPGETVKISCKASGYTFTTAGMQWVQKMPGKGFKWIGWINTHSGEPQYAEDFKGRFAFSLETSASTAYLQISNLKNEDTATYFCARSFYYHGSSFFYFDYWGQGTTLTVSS VL: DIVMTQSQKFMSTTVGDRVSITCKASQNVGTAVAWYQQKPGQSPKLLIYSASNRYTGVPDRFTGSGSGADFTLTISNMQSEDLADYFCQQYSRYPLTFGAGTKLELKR" group_label="true (1)"
binder="F3.54.12 (antibody, human IgG1, kappa, V domains shown, Human-murine chimeric antibody) VH: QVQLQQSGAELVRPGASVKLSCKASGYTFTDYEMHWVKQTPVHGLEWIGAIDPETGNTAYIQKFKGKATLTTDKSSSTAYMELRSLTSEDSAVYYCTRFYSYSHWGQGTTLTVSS VL: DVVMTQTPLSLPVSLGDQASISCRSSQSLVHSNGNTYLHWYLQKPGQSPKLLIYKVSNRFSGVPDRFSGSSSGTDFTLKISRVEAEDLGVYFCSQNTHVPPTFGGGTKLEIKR" group_label="false (0)"
binder="F4.26.1 (antibody, human IgG1, kappa, V domains shown, Human-murine chimeric antibody) VH: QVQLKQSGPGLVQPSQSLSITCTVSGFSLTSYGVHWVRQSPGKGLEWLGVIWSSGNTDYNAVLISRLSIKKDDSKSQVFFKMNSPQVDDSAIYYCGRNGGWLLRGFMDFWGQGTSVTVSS VL: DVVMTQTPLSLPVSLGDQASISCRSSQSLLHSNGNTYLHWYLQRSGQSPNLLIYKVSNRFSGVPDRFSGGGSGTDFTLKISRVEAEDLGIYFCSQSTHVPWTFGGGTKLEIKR" group_label="false (0)"
binder="F1.115.8 (antibody, human IgG1, kappa, V domains shown, Human-murine chimeric antibody) VH: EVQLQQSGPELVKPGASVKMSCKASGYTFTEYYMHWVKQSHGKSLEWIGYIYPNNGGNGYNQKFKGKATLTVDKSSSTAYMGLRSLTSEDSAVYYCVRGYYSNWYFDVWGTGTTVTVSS VL: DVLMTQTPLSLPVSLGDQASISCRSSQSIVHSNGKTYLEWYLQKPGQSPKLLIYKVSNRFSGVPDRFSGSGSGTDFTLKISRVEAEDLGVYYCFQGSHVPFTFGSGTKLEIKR" group_label="true (1)"

API: query returns whether the binder falls strictly under 2 nM in Kd. Query: F4.21.16 (antibody, human IgG1, kappa, V domains shown, Human-murine chimeric antibody) VH: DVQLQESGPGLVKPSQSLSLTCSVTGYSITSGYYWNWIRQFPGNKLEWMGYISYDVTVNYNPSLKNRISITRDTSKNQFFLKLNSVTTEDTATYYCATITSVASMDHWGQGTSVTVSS VL: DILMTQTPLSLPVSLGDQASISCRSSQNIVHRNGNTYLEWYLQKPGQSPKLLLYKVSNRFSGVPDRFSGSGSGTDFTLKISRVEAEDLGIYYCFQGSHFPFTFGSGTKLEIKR
false (0)
